Attribution: ChEMBL document CHEMBL4261560

Experiment: Cytotoxicity against human J-Lat cells
Type: cell-based

[
  {
    "COMPOUND": "CCOC(=O)C1(C(F)(F)F)C(C#N)=C(N)Oc2c1c1ccccc1n2C (centres undefined)",
    "fold change (FC)": 1.3
  },
  {
    "COMPOUND": "COC(=O)C1(C(F)(F)F)C(C#N)=C(N)Oc2c1c1ccccc1n2C(=O)OC(C)(C)C (centres undefined)",
    "fold change (FC)": 2.6
  },
  {
    "COMPOUND": "CCOC(=O)C1(C(F)(F)F)C(C#N)=C(N)Oc2c1c1ccccc1n2C(=O)OC(C)(C)C (racemic)",
    "fold change (FC)": 1.8
  },
  {
    "COMPOUND": "CC(C)(C)OC(=O)n1c2c(c3ccccc31)C(C(F)(F)F)C(C#N)=C(N)O2 (centres undefined)",
    "fold change (FC)": 3
  }
]

---

Listed next: entries and their corresponding fold change (FC).
Test system: Human immunodeficiency virus 1
Assay: Reactivation of latent HIV1 LTR-GFP infected in human Jurkat-Lat A10.6 cells assessed as increase in GFP-positive cells after 24 hrs by flow cytometry relative to control
Type: functional

[
  {
    "COMPOUND": "CCOC(=O)C1(C(F)(F)F)C(C#N)=C(N)Oc2c1c1ccccc1n2C(=O)OC(C)(C)C (racemic)",
    "TARGET OR TEST SYSTEM": "Human immunodeficiency virus 1",
    "fold change (FC)": 2.6
  },
  {
    "COMPOUND": "COC(=O)C1(C(F)(F)F)C(C#N)=C(N)Oc2c1c1ccccc1n2C(=O)OC(C)(C)C (configuration not stated)",
    "TARGET OR TEST SYSTEM": "Human immunodeficiency virus 1",
    "fold change (FC)": 2.1
  },
  {
    "COMPOUND": "CCOC(=O)C1(C(F)(F)F)C(C#N)=C(N)Oc2c1c1ccccc1n2Cc1ccccc1 (configuration not stated)",
    "TARGET OR TEST SYSTEM": "Human immunodeficiency virus 1",
    "fold change (FC)": 1.9
  },
  {
    "COMPOUND": "CC(C)(C)OC(=O)n1c2c(c3ccccc31)C(C(F)(F)F)C(C#N)=C(N)O2 (configuration not stated)",
    "TARGET OR TEST SYSTEM": "Human immunodeficiency virus 1",
    "fold change (FC)": 0.25
  },
  {
    "COMPOUND": "CCOC(=O)C1(C(F)(F)F)C(C#N)=C(N)Oc2c1c1ccccc1n2C (configuration not stated)",
    "TARGET OR TEST SYSTEM": "Human immunodeficiency virus 1",
    "fold change (FC)": 4.4
  },
  {
    "COMPOUND": "CCOC(=O)[C@@]1(C(F)(F)F)C(C#N)=C(N)Oc2c1c1ccccc1n2C(=O)OC(C)(C)C",
    "TARGET OR TEST SYSTEM": "Human immunodeficiency virus 1",
    "fold change (FC)": 1.5
  },
  {
    "COMPOUND": "CCOC(=O)C1(C(F)(F)F)C(C#N)=C(N)Oc2[nH]c3ccccc3c21 (configuration not stated)",
    "TARGET OR TEST SYSTEM": "Human immunodeficiency virus 1",
    "fold change (FC)": 2
  }
]
